Reported MIC values for a set of molecules
- System: Enterobacter cloacae ATCC 27508
- Protocol details: Antibacterial activity, MIC
- Type: cell-based
- Assay setup: ATCC27508, ATCC 27508, agar two-fold dilution, 37° C., 20 hours, read-out: MIC
Endpoint label: MIC (µg/mL)

{"columns": ["Molecule", "Relation", "Data value"],
 "data": [
  ["CC(C)(O/N=C(\\C(=O)NC1C(=O)N2C(C(=O)[O-])=C(CSc3nc(N)cc(N)[n+]3-c3ccccc3)CSC12)c1csc(N)n1)C(=O)O (centres unmarked)", "=", 0.063],
  ["CC(O/N=C(\\C(=O)NC1C(=O)N2C(C(=O)[O-])=C(CSc3nc(N)cc(N)[n+]3N)CSC12)c1csc(N)n1)C(=O)O (centres unmarked)", "≤", 0.008],
  ["CCO/N=C(\\C(=O)NC1C(=O)N2C(C(=O)[O-])=C(CSc3nc(N)cc(N)[n+]3N)CSC12)c1csc(N)n1 (centres unmarked)", "=", 0.016],
  ["CCO/N=C(\\C(=O)NC1C(=O)N2C(C(=O)[O-])=C(CSc3nc(N)cc(N)[n+]3-c3ccc(Cl)cc3)CSC12)c1csc(N)n1 (centres unmarked)", "=", 0.13],
  ["CC(C)(O/N=C(\\C(=O)NC1C(=O)N2C(C(=O)[O-])=C(CSc3nc(N)cc(N)[n+]3C3CC3)CSC12)c1csc(N)n1)C(=O)O (centres unmarked)", "=", 0.031],
  ["C=CC[n+]1c(N)cc(N)nc1SCC1=C(C(=O)[O-])N2C(=O)C(NC(=O)/C(=N\\OCC)c3nsc(N)n3)C2SC1 (centres unmarked)", "=", 0.031],
  ["CC[n+]1c(N)cc(N)nc1SCC1=C(C(=O)[O-])N2C(=O)C(NC(=O)/C(=N\\OC(C)(C)C(=O)O)c3csc(N)n3)C2SC1 (centres unmarked)", "=", 0.031],
  ["Cc1c(N)nc(SCC2=C(C(=O)[O-])N3C(=O)C(NC(=O)/C(=N\\OC(C)(C)C(=O)O)c4csc(N)n4)C3SC2)[n+](C)c1N (centres unmarked)", "=", 0.063],
  ["CCO/N=C(\\C(=O)NC1C(=O)N2C(C(=O)[O-])=C(CSc3nc(N)cc(N)[n+]3N)CSC12)c1nsc(N)n1 (centres unmarked)", "=", 0.016],
  ["C=CC[n+]1c(N)cc(N)nc1SCC1=C(C(=O)[O-])N2C(=O)C(NC(=O)/C(=N\\OCC(=O)O)c3csc(N)n3)C2SC1 (centres unmarked)", "≤", 0.008],
  ["C#CCO/N=C(\\C(=O)NC1C(=O)N2C(C(=O)[O-])=C(CSc3nc(N)cc(N)[n+]3C)CSC12)c1csc(N)n1 (centres unmarked)", "≤", 0.008],
  ["CCC[n+]1c(N)cc(N)nc1SCC1=C(C(=O)[O-])N2C(=O)C(NC(=O)/C(=N\\OC(C)C(=O)O)c3csc(N)n3)C2SC1 (centres unmarked)", "=", 0.016],
  ["CCO/N=C(\\C(=O)NC1C(=O)N2C(C(=O)[O-])=C(CSc3nc(N)cc(N)[n+]3CC)CSC12)c1nsc(N)n1 (centres unmarked)", "=", 0.016],
  ["CC(C)(O/N=C(\\C(=O)NC1C(=O)N2C(C(=O)[O-])=C(CSc3nc(N)cc(N)[n+]3N)CS[C@H]12)c1csc(N)n1)C(=O)O (some centres unmarked)", "=", 0.016],
  ["CO/N=C(\\C(=O)NC1C(=O)N2C(C(=O)[O-])=C(CSc3nc(N)cc(N)[n+]3C)CSC12)c1csc(N)n1 (centres unmarked)", "≤", 0.008],
  ["CCO/N=C(\\C(=O)NC1C(=O)N2C(C(=O)[O-])=C(CSc3nc(N)cc(N)[n+]3CC)CSC12)c1csc(N)n1 (centres unmarked)", "≤", 0.008],
  ["CC[n+]1c(SCC2=C(C(=O)[O-])N3C(=O)C(NC(=O)/C(=N\\OC(C)(C)C(=O)O)c4csc(N)n4)C3SC2)nc(N)c(C)c1N (centres unmarked)", "=", 0.016],
  ["C#CCO/N=C(\\C(=O)NC1C(=O)N2C(C(=O)[O-])=C(CSc3nc(N)cc(N)[n+]3N)CSC12)c1csc(N)n1 (centres unmarked)", "≤", 0.008],
  ["C[n+]1c(N)cc(N)nc1SCC1=C(C(=O)[O-])N2C(=O)C(NC(=O)/C(=N\\OC(C)(C)C(=O)O)c3nsc(N)n3)C2SC1 (centres unmarked)", "=", 0.031],
  ["C#CCO/N=C(\\C(=O)NC1C(=O)N2C(C(=O)[O-])=C(CSc3nc(N)cc(N)[n+]3CC)CSC12)c1csc(N)n1 (centres unmarked)", "=", 0.016],
  ["CO/N=C(\\C(=O)NC1C(=O)N2C(C(=O)[O-])=C(CSc3nc(N)cc(N)[n+]3C)CSC12)c1nsc(N)n1 (centres unmarked)", "=", 0.063],
  ["Cc1c(N)nc(SCC2=C(C(=O)[O-])N3C(=O)C(NC(=O)/C(=N\\OC(C)(C)C(=O)O)c4csc(N)n4)C3SC2)[n+](N)c1N (centres unmarked)", "=", 0.016],
  ["CC[n+]1c(N)cc(N)nc1SCC1=C(C(=O)[O-])N2C(=O)C(NC(=O)/C(=N\\OC(C)C(=O)O)c3csc(N)n3)C2SC1 (centres unmarked)", "=", 0.016],
  ["CC[n+]1c(N)cc(N)nc1SCC1=C(C(=O)[O-])N2C(=O)C(NC(=O)/C(=N\\OCC(=O)O)c3csc(N)n3)C2SC1 (centres unmarked)", "≤", 0.008],
  ["C=CC[n+]1c(N)cc(N)nc1SCC1=C(C(=O)[O-])N2C(=O)C(NC(=O)/C(=N\\OC(C)(C)C(=O)O)c3csc(N)n3)C2SC1 (centres unmarked)", "=", 0.031],
  ["C[n+]1c(N)cc(N)nc1SCC1=C(C(=O)[O-])N2C(=O)C(NC(=O)/C(=N\\OCC(=O)O)c3csc(N)n3)C2SC1 (centres unmarked)", "≤", 0.008]
]}

----------
- Protocol details: In-vivo absorbency (plasma concentrations & pharmacokinetic parameters)
- Design: species or system SD rat (male)
- Assay setup: rat, in vivo, iv, 20 mg/kg

{"columns": ["Molecule", "concentration at 2 h"],
 "data": [
  ["CC(C)(O/N=C(\\C(=O)N[C@@H]1C(=O)N2C(C(=O)[O-])=C(C[n+]3ccccc3)CS[C@H]12)c1csc(N)n1)C(=O)O [Ceftazidime, reference compound]", "1600 ng/mL"]
]}

----------
Listed here: compounds with reported MIC for Escherichia coli ATCC 10536.

{"columns": ["Compound", "Measurement unit", "MIC"],
 "data": [
  ["CCc1c(N)nc(SCC2=C(C(=O)[O-])N3C(=O)C(NC(=O)/C(=N\\OC(C)(C)C(=O)O)c4csc(N)n4)C3SC2)[n+](CC)c1N (stereo not drawn)", "µg/mL", 0.13],
  ["C#CCO/N=C(\\C(=O)NC1C(=O)N2C(C(=O)[O-])=C(CSc3nc(N)cc(N)[n+]3N)CSC12)c1csc(N)n1 (stereo not drawn)", "µg/mL", 0.13],
  ["C=CC[n+]1c(N)cc(N)nc1SCC1=C(C(=O)[O-])N2C(=O)C(NC(=O)/C(=N\\OC(C)C(=O)O)c3csc(N)n3)C2SC1 (stereo not drawn)", "µg/mL", 0.063]
]}

----------
- Test system: Bacillus megaterium ATCC 9885
- Protocol details: Antibacterial activity, MIC
- Type: cell-based
- Assay setup: Priestia megaterium, ATCC9885; ATCC 9885; agar two-fold dilution, 37° C., 20 hours; read-out: MIC

{"columns": ["Molecule", "Measurement unit", "MIC"],
 "data": [
  ["CC(C)(O/N=C(\\C(=O)NC1C(=O)N2C(C(=O)[O-])=C(CSc3nc(N)cc(N)[n+]3C3CC3)CSC12)c1csc(N)n1)C(=O)O (stereo not drawn) [Compound I-48]", "µg/mL", 0.5],
  ["C#CCO/N=C(\\C(=O)NC1C(=O)N2C(C(=O)[O-])=C(CSc3nc(N)cc(N)[n+]3CC)CSC12)c1csc(N)n1 (stereo not drawn) [Compound I-47]", "µg/mL", 0.13],
  ["CC(C)(O/N=C(\\C(=O)NC1C(=O)N2C(C(=O)[O-])=C(CSc3nc(N)cc(N)[n+]3N)CS[C@H]12)c1csc(N)n1)C(=O)O (stereo partly drawn) [Compound I-15]", "µg/mL", 0.5]
]}

----------
Reported MIC values for a set of compounds
- Tested on: Klebsiella pneumoniae ATCC 10031
- Protocol details: Antibacterial activity, MIC
- Type: cell-based
- Assay setup: ATCC10031, ATCC 10031, agar two-fold dilution, 37° C., 20 hours, read-out: MIC

{"columns": ["Compound", "Relation", "MIC (µg/mL)"],
 "data": [
  ["C[n+]1c(N)cc(N)nc1SCC1=C(C(=O)[O-])N2C(=O)C(NC(=O)/C(=N\\OCC(=O)O)c3csc(N)n3)C2SC1 (stereo not drawn)", "=", 0.016],
  ["C#CCO/N=C(\\C(=O)NC1C(=O)N2C(C(=O)[O-])=C(CSc3nc(N)cc(N)[n+]3C)CSC12)c1csc(N)n1 (stereo not drawn)", "≤", 0.008],
  ["C=CC[n+]1c(N)cc(N)nc1SCC1=C(C(=O)[O-])N2C(=O)C(NC(=O)/C(=N\\OCC(=O)O)c3csc(N)n3)C2SC1 (stereo not drawn)", "=", 0.031]
]}
